Form field: inhibition at 10 µM (one value per entry).
# TEST TARGET: TEAD2 (Homo sapiens (Human), UniProt Q15562)
# Sequence (Q15562 whole entry): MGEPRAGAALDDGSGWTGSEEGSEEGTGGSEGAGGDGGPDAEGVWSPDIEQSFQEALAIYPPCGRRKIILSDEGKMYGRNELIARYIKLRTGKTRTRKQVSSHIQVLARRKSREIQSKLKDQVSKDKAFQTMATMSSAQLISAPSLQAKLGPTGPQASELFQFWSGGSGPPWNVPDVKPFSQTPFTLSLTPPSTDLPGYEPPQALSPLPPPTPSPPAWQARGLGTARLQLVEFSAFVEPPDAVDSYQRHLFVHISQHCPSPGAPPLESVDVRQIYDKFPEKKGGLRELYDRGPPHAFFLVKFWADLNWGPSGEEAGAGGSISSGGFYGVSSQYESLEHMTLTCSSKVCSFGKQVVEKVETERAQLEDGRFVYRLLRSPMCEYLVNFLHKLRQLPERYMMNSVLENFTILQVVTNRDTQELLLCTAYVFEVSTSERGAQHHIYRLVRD
# PROTOCOL DETAILS: In vitro palmitoylation (TEAD2 autopalmitoylation, streptavidin blot)
# Assay type: biochemical
# COND: compound at 10 μM; Table 2
Could you give the number and then its unit, please?

Here is how some compounds turned out for inhibition at 10 µM.
>>> result("O=C(Nc1ccc(Nc2ccc(C34CC5CC(CC(C5)C3)C4)cc2Cl)cc1)[C@H]1CCC[C@H]1C(=O)O (stereo in doubt) [compound 288]")
"53%"
>>> result("COC(=O)c1ccccc1Nc1ccc(C(=O)Nc2ccc(C34CC5CC(CC(C5)C3)C4)cc2)cc1 [Compound 4]")
"0%"
>>> result("O=C(O)c1cccnc1Nc1cccc(C23CC4CC(CC(C4)C2)C3)c1 [Compound 96]")
"96%"
>>> result("O=C(Nc1ccc(C23CC4CC(CC(C4)C2)C3)cc1Cl)c1cccc(Nc2ncccc2C(=O)O)c1 [Compound 241]")
"100%"
>>> result("O=C(O)c1ccccc1Nc1ccc(Nc2ccc(OCC34CC5CC(CC(C5)C3)C4)cc2)cc1 [Compound 205]")
"74%"
>>> result("O=C(O)c1cncc(Nc2ccc(Nc3ccc(C45CC6CC(CC(C6)C4)C5)cc3Cl)cc2)c1 [Compound 116]")
"91%"

Problem: # query: inhibition at 10 µM of entry CCCCN(CCCC)c1ccc(NC(=O)c2ccc(Nc3ccccc3C(=O)O)cc2)cc1 [Compound 170]
Result: 62%

Problem: # query: inhibition at 10 µM of entry c1ccc2c(c1)ccn2-c1ccc(Nc2ccc(C34CC5CC(CC(C5)C3)C4)cc2)cc1 [Compound 244]
Result: 8%

Problem: # query: inhibition at 10 µM of entry CC(C)c1ccccc1Cc1cccc(Nc2ncccc2C(=O)O)c1 [Compound 113]
Result: 100%

Problem: # query: inhibition at 10 µM of entry O=C(O)c1cccnc1Oc1ccc(Nc2ccc(C34CC5CC(CC(C5)C3)C4)cc2Cl)cc1 [Compound 136]
Result: 99%

Problem: # query: inhibition at 10 µM of entry O=C(O)c1ccccc1Nc1ccc(Nc2ccc(-c3ccccc3Cl)cc2Cl)cc1 [Compound 58]
Result: 60%

Problem: # query: inhibition at 10 µM of entry COc1ccc(C(=O)O)c(Nc2ccc(Nc3ccc(C45CC6CC(CC(C6)C4)C5)cc3)cc2)c1 [Compound 251]
Result: 27%

Problem: # query: inhibition at 10 µM of entry O=C(O)c1ccccc1Nc1cc(Nc2ccc(C34CC5CC(CC(C5)C3)C4)cc2)cc(C(F)(F)F)c1 [Compound 26]
Result: 90%

Problem: # query: inhibition at 10 µM of entry O=C(O)c1cncc(Nc2cc(Nc3ccc(C45CC6CC(CC(C6)C4)C5)cc3Cl)cc(C(F)(F)F)c2)c1 [Compound 153]
Result: 100%

----------
# TEST TARGET: TEAD2 (Homo sapiens (Human), UniProt Q15562)
# PROTOCOL DETAILS: In vitro palmitoylation (TEAD2 autopalmitoylation, streptavidin blot)
# Format: biochemical
# COND: compound at 10 μM; Table 2
MEASURE: inhibition at 10 µM (%)
Give your result in % as a bare value.

Here is how some molecules turned out for inhibition at 10 µM.
>>> result("CN(c1ccc(N(C)c2ccccc2C(=O)O)cc1)c1ccc(C23CC4CC(CC(C4)C2)C3)cc1 [Compound 100]")
100
>>> result("CCN(c1ccc(N(C)c2ccc(C34CC5CC(CC(C5)C3)C4)cc2)cc1)c1ccccc1C(=O)O [Compound 171]")
75
>>> result("O=C(O)c1cncnc1Nc1ccc(Nc2ccc(C34CC5CC(CC(C5)C3)C4)cc2Cl)cc1 [Compound 85]")
20

Problem: // fetch TEAD2 (Homo sapiens (Human), UniProt Q15562) inhibition at 10 µM for O=C(O)c1cccnc1Nc1cccc(Nc2ccc(C34CC5CC(CC(C5)C3)C4)cc2Cl)c1 [Compound 114]
Result: 98

Problem: // fetch TEAD2 (Homo sapiens (Human), UniProt Q15562) inhibition at 10 µM for O=C(Nc1ccc(C23CC4CC(CC(C4)C2)C3)cc1)c1cccc(Nc2ccccc2C(=O)O)c1 [Compound 214]
Result: 88

Problem: // fetch TEAD2 (Homo sapiens (Human), UniProt Q15562) inhibition at 10 µM for O=C(O)C1CCCN(C(=O)c2ccc(Nc3ccc(C45CC6CC(CC(C6)C4)C5)cc3Cl)cc2)C1 (stereo not drawn) [Compound 123]
Result: 88

Problem: // fetch TEAD2 (Homo sapiens (Human), UniProt Q15562) inhibition at 10 µM for CC(C)c1ccccc1-c1ccc(NC(=O)c2ccc(Nc3ccccc3C(=O)O)cc2)cc1 [Compound 211]
Result: 67

Problem: // fetch TEAD2 (Homo sapiens (Human), UniProt Q15562) inhibition at 10 µM for CCN(c1ccc(N(CC)c2ccccc2C(=O)O)cc1)c1ccc(C23CC4CC(CC(C4)C2)C3)cc1 [Compound 163]
Result: 85
